Parameter: Ratio IC50. Scope: all listed entries.
- Procedure summary: Selectivity index, ratio of IC50 for human NMT1 to IC50 for Cryptosporidium parvum NMT
Lab note: record just the number, no unit beside it.

CCN(c1ccccc1)S(=O)(=O)c1ccc(Cl)c(C(=O)Nc2ccccc2N2CCN(C)C2=O)c1 :: 4.6

Could you now consider this next compound?
Item: CCN(c1ccccc1)S(=O)(=O)c1ccc(Cl)c(C(=O)Nc2ccccc2N2CCCC2=O)c1 | Ratio IC50: 1.4

====

- Procedure summary: Inhibition of Cryptosporidium parvum NMT
Parameter: IC50. Scope: all listed entries.
Write down the numeric answer in µM and omit the unit.

Worked examples, 4 molecules total:
CCN(c1ccccc1)S(=O)(=O)c1ccc(Cl)c(C(=O)Nc2ccccc2N2CCCC2=O)c1 :: 3.5
CCN(c1ccccc1)S(=O)(=O)c1ccc(Cl)c(C(=O)Nc2ccccc2N2CCC(C)(C)C2=O)c1 :: 13.8
CCN1CCN(c2ccccc2NC(=O)c2cc(S(=O)(=O)N(CC)c3ccccc3)ccc2Cl)C1=O :: 2.8
CCN(c1ccccc1)S(=O)(=O)c1ccc(Cl)c(C(=O)Nc2ccccc2N2CCN(CC3CC3)C2=O)c1 :: 52.8

Item: CCN(c1ccccc1)S(=O)(=O)c1ccc(Cl)c(C(=O)Nc2ccccc2N2CCN(C)C2=O)c1 | IC50: 2.5
